Assign viability at 28.5 h, 10 µM to each entry below.
# Assay notes: in vitro
# Conditions: human, hela cells, % viability
Reply with just the number (in %).

Q: Which value of viability at 28.5 h, 10 µM has been reported for `COc1cc(NC(=O)c2ccc3c(c2)C(=O)N(c2ccccc2OC)C3=O)c(C(=O)O)cc1OC` in the records?
Result: 95.1

Q: Which value of viability at 28.5 h, 10 µM has been reported for Cc1n[nH]c(NN)c1Cl [CBK260876C] in the records?
Result: 89.5

Q: Which value of viability at 28.5 h, 10 µM has been reported for Cc1cc2ncn(C3CC(=O)N(c4ccc(C(=O)O)cc4)C3=O)c2cc1C (centres unmarked) in the records?
Result: 89.4

Q: Which value of viability at 28.5 h, 10 µM has been reported for `O=C(CCN1Cc2ccccc2C1=O)NCCN1CCc2ccccc21` in the records?
Result: 97.5

Q: Which value of viability at 28.5 h, 10 µM has been reported for `COC(=O)c1ccccc1NC(=O)Nc1ccc(N2CCOCC2)c2nonc12` in the records?
Result: 90.6

Q: Which value of viability at 28.5 h, 10 µM has been reported for `Cc1cccnc1NC(=O)COc1ccc(Cl)cc1` in the records?
Result: 106

Q: Which value of viability at 28.5 h, 10 µM has been reported for CCn1nc(C)c(CN2CCCC(c3cc4cccnc4[nH]3)C2)c1C (centres unmarked) in the records?
Result: 107

Q: Which value of viability at 28.5 h, 10 µM has been reported for CC1Oc2ccc(NC(=O)C3CC4C=CC3C43CC3)cc2NC1=O (centres unmarked) in the records?
Result: 101

Q: Which value of viability at 28.5 h, 10 µM has been reported for `CCN(CCn1cccn1)c1nc2nonc2nc1N(C)C` in the records?
Result: 88.9

Q: Which value of viability at 28.5 h, 10 µM has been reported for Cc1ccc(C23CC4CC(CC(NC(=O)NC(Cc5ccccc5)C(=O)O)(C4)C2)C3)cc1 (centres unmarked) in the records?
Result: 93.7

Q: Which value of viability at 28.5 h, 10 µM has been reported for `CN1CCC(N2CCN(C(=O)NCCN3CCOCC3)CC2)CC1` in the records?
Result: 93.8

Q: Which value of viability at 28.5 h, 10 µM has been reported for `COc1ccc(-c2nc3c(c(SCC(=O)O)n2)COC(C)(C)C3)cc1` in the records?
Result: 107

Q: Which value of viability at 28.5 h, 10 µM has been reported for CN(C)CCNCCCSc1ccc(Cl)cc1 [CBK267794C] in the records?
Result: 104

Q: Which value of viability at 28.5 h, 10 µM has been reported for `CCOc1ccc(N(CCC#N)C(=O)Cn2nc(C(=O)O)c3ccccc3c2=O)cc1` in the records?
Result: 85.2

Q: Which value of viability at 28.5 h, 10 µM has been reported for `O=C(CN1CCOCC1)Nc1sc2c(c1C(=O)Nc1ccc(Br)cc1)CCC2` in the records?
Result: 111

Q: Which value of viability at 28.5 h, 10 µM has been reported for `Cc1nn(C)c(C)c1OCC(=O)Nc1nc2c(cc1C#N)CCC2` in the records?
Result: 81

Q: Which value of viability at 28.5 h, 10 µM has been reported for `Cc1nnc(NC(=O)c2ccc3c(c2)OCO3)s1` in the records?
Result: 104

* * *

# Assay notes: in vitro
# Conditions: human, hela cells, % viability
Test readout: viability at 28.5 h, 10 µM (%)
Reply with just the number (in %).

Q: Which value of viability at 28.5 h, 10 µM has been reported for Cc1ccc2nc(C(=O)O)cc(OCC(=O)Nc3ccccc3F)c2c1 [CBK287255] in the records?
Result: 88.8

Q: Which value of viability at 28.5 h, 10 µM has been reported for COc1ccc2c3c(cc(Cl)cc13)CC(N)C2 (stereo not shown) [CBK016450C] in the records?
Result: 84.2

Q: Which value of viability at 28.5 h, 10 µM has been reported for C=CCc1c(O)nc(SCC(=O)N2CCOCC2)[nH]c1=O [CBK073301] in the records?
Result: 91.8

Q: Which value of viability at 28.5 h, 10 µM has been reported for O=C(O)c1cc(NS(=O)(=O)c2ccc(N3CCCCC3)c([N+](=O)[O-])c2)cc(C(=O)O)c1 [CBK263876] in the records?
Result: 101

Q: Which value of viability at 28.5 h, 10 µM has been reported for CS(=O)(=O)c1ccc(Cn2ccnc(N3CCN(C(=O)Cc4cccs4)CC3)c2=O)cc1 [CBK153773] in the records?
Result: 89.9

Q: Which value of viability at 28.5 h, 10 µM has been reported for COc1nc(NCc2ccco2)nc(OC)n1 [CBK027479] in the records?
Result: 86.4

Q: Which value of viability at 28.5 h, 10 µM has been reported for CC(CO)(CO)Nc1ccc(C(F)(F)F)cc1[N+](=O)[O-] [CBK262806] in the records?
Result: 61.9

Q: Which value of viability at 28.5 h, 10 µM has been reported for NS(=O)(=O)c1ccc(C(=O)NCCc2c[nH]c3ccc(Cl)cc23)cc1 [CBK159780] in the records?
Result: 95.2

Q: Which value of viability at 28.5 h, 10 µM has been reported for CC(=O)N1C2CCC1CC(O)(Cn1ccc3ccnc(Cl)c31)C2 (stereo not shown) [CBK284868] in the records?
Result: 106

Q: Which value of viability at 28.5 h, 10 µM has been reported for Nc1c(-c2cc(F)cc(F)c2)cnc2ncccc12 [CBK083677] in the records?
Result: 111

Q: Which value of viability at 28.5 h, 10 µM has been reported for CC(Oc1cccc(Br)c1)c1nc(-c2ccc(-n3cccc3)cc2)no1 (stereo not shown) [CBK293986] in the records?
Result: 102

Q: Which value of viability at 28.5 h, 10 µM has been reported for Cc1ccc(-c2oncc2C(=O)N2CCC(n3c(=O)[nH]c4ccccc43)CC2)cc1 [CBK149180] in the records?
Result: 106

Q: Which value of viability at 28.5 h, 10 µM has been reported for COc1ccccc1NC(=O)NCCC1SC(NC2CCCCCC2)=NC1=O (stereo not shown) [CBK067473] in the records?
Result: 91.8

Q: Which value of viability at 28.5 h, 10 µM has been reported for O=C(Nc1ccc(Cl)cc1C(=O)O)c1ccccc1Cl [CBK000171] in the records?
Result: 91.4

Q: Which value of viability at 28.5 h, 10 µM has been reported for CC(NC(=O)C1CCN(CCOc2ccc(F)cc2)CC1)c1cccc2ccccc12 (stereo not shown) [CBK148634] in the records?
Result: 93.6

Q: Which value of viability at 28.5 h, 10 µM has been reported for O=C(CN1C(=O)c2ccccc2C1=O)Nc1cccc2ncccc12 [CBK262761] in the records?
Result: 84

Q: Which value of viability at 28.5 h, 10 µM has been reported for CN(C)CCCn1cnc2c1c(=O)[nH]c(=O)n2Cc1ccccc1 [CBK291234] in the records?
Result: 95.3

Q: Which value of viability at 28.5 h, 10 µM has been reported for O=C(O)CCN1C(=O)c2ccc(NC(=O)c3ccccc3Cl)cc2C1=O [CBK268413] in the records?
Result: 83.7

Q: Which value of viability at 28.5 h, 10 µM has been reported for CCC1(CCc2ccccc2)CC(O)=CC(=O)O1 (stereo not shown) [CBK012790] in the records?
Result: 98.5

Q: Which value of viability at 28.5 h, 10 µM has been reported for Fc1ccc(OCc2ccc(-c3nnn[nH]3)cc2)cc1 [CBK267859] in the records?
Result: 106

Q: Which value of viability at 28.5 h, 10 µM has been reported for CCCNC(=O)c1nn2c(C(F)(F)F)cc(-c3ccccc3)nc2c1Cl [CBK051499] in the records?
Result: 110

Q: Which value of viability at 28.5 h, 10 µM has been reported for CN(C)c1ccc(C(=O)N2CC(=O)Nc3ccccc32)cc1 [CBK017839] in the records?
Result: 89.2

Q: Which value of viability at 28.5 h, 10 µM has been reported for COc1ccc(CC(=O)N2CCCC2c2nc3ccccc3[nH]2)cc1 (stereo not shown) [CBK283666] in the records?
Result: 93.4

Q: Which value of viability at 28.5 h, 10 µM has been reported for CC1=C(C(=O)Nc2ccc(Cl)cc2Cl)SCCO1 [CBK057784] in the records?
Result: 96.5

Q: Which value of viability at 28.5 h, 10 µM has been reported for CC(=O)NCCNC(=O)c1cc(Br)cnc1NCCOc1ccccc1 [CBK076232] in the records?
Result: 103

* * *

# Assay notes: in vitro
# Conditions: human, hela cells, % viability
Test readout: viability at 28.5 h, 10 µM
# answer = value followed by unit

Q: Which value of viability at 28.5 h, 10 µM has been reported for `Nc1cc(-c2cccs2)nn(Cc2ccccc2Cl)c1=O` in the records?
Result: 91%

Q: Which value of viability at 28.5 h, 10 µM has been reported for `CCCc1cc(C(N)=O)cc(CCC)c1OCC` in the records?
Result: 98%

Q: Which value of viability at 28.5 h, 10 µM has been reported for `CCNC(=O)C1(Cc2ccccc2-c2ccccc2C)CCN(C(=O)c2ccccc2)CC1` in the records?
Result: 96.6%

Q: Which value of viability at 28.5 h, 10 µM has been reported for CC(C)(C)NC(NC(=O)Cc1ccccc1)C(Cl)(Cl)Cl (stereo not drawn) in the records?
Result: 86.5%

Q: Which value of viability at 28.5 h, 10 µM has been reported for Cc1ccc(NC(=O)CC(C(=O)O)N(C)C)cc1 (stereo not drawn) in the records?
Result: 81.7%

Q: Which value of viability at 28.5 h, 10 µM has been reported for CC(=O)Nc1ccc(F)c(NC(=O)NCC2CCOC2)c1 (stereo not drawn) in the records?
Result: 107%

Q: Which value of viability at 28.5 h, 10 µM has been reported for `CN(C(=O)c1cccn1C)C1CCN(c2ncnc3ccccc23)CC1` in the records?
Result: 91.8%

Q: Which value of viability at 28.5 h, 10 µM has been reported for OC1CCn2c1nc1cc(C(F)(F)F)ccc12 (stereo not drawn) in the records?
Result: 80.4%

Q: Which value of viability at 28.5 h, 10 µM has been reported for Cc1nc(C(Cc2ccsc2)NC(=O)c2ccnn2C)sc1C (stereo not drawn) in the records?
Result: 87.6%

Q: Which value of viability at 28.5 h, 10 µM has been reported for `c1cnc(-c2ccsc2)c(OC2CCCCC2)n1` in the records?
Result: 97.6%

Q: Which value of viability at 28.5 h, 10 µM has been reported for `CCOC(=O)CN1C(=O)N2CCCN=C2c2ccc(Cl)cc21` in the records?
Result: 77.8%

Q: Which value of viability at 28.5 h, 10 µM has been reported for `C/C(=C\c1ccccc1)CN1CCC(C(=O)N2CCN(Cc3ccc4c(c3)OCO4)CC2)CC1` in the records?
Result: 94.1%

Q: Which value of viability at 28.5 h, 10 µM has been reported for `O=C(Nc1ncn(CC(=O)N2CCCCCC2)n1)c1cccc(F)c1` in the records?
Result: 87.5%

Q: Which value of viability at 28.5 h, 10 µM has been reported for `O=C(O)c1ccccc1S(=O)(=O)CC(=O)N1CCCCC1` in the records?
Result: 89.1%

Q: Which value of viability at 28.5 h, 10 µM has been reported for O=c1[nH]c(=O)c2cc(S(=O)(=O)NCC3CCN(Cc4ccccc4)C3)ccc2[nH]1 (stereo not drawn) in the records?
Result: 90%

Q: Which value of viability at 28.5 h, 10 µM has been reported for `CN(C)S(=O)(=O)c1ccc(C(=O)Nc2ccc3ncn(C)c(=O)c3c2)cc1` in the records?
Result: 103%

Q: Which value of viability at 28.5 h, 10 µM has been reported for OC1(c2cccnc2)CCCC2CN(Cc3ccc(F)c(F)c3)CC21 (stereo not drawn) in the records?
Result: 101%

Q: Which value of viability at 28.5 h, 10 µM has been reported for CCOC(=O)Cc1csc(SC(C)C(=O)N2CCCc3ccccc32)n1 (stereo not drawn) in the records?
Result: 98.9%
